Molecular target: human glucagon receptor (human) (UniProt P47871)
Sequence (P47871 26-477): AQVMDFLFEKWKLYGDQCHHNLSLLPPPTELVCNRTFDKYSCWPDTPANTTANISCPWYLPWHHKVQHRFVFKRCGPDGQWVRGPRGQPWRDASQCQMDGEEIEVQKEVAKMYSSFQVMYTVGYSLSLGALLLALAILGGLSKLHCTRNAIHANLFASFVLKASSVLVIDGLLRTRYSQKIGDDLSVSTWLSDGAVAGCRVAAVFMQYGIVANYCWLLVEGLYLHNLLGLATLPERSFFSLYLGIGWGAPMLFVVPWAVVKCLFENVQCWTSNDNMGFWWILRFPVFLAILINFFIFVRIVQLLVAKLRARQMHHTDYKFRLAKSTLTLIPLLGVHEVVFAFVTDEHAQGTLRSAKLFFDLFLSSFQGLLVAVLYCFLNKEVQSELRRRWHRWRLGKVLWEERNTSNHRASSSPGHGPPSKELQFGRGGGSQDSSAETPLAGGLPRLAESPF
Experiment: cell-based or functional assay
Label scheme for cAMP Rel EC50, nM (1% HSA): group A = under 600 nM, group B = from 600 nM up to 1000 nM, group C = 1000 nM and over

binder="YXQGTXTSDXSILLDKKAQXAFIEYLEEGGPSSGAPPPS (not fully specified; synthetic construct; SITE 2: note = 2-Aminoisobutyric Acid; SITE 6: note = alpha-methyl-2-fluoro-L-phenylalanine; SITE 10: note = 3-(4-Pyridyl)-L-alanine; SITE 17: note = Lysine is chemically modified through conjugation of the epsilon-amino group of the Lysine side chain with (gamma-Glu)2-CO-(CH2)1) [Example 413]" label_class="group B"
binder="YXQGTFTSDXSQXLDKKAQXAFIEXLIEGGPSSGAPPPSGS (Aib, 4Pal, Me4Pal, αMeL; lipidated Lys; C-terminal amide; synthetic construct; SITE 2: note = 2-Aminoisobutyric Acid; SITE 10: note = 3-(4-Pyridyl)-L-alanine; SITE 13: note = alpha-methyl-leucine; SITE 17: note = Lysine is chemically modified through conjugation of the epsilon-amino group of the Lysine side chain with (gamma-Glu)2-CO-(CH2)16-CO2H; SITE 20:) [Example 951]" label_class="group B"
binder="YXQGTFTSDFSXXLDKKAQXAFIEYLLEAGPSSGAPPPSGX (acylated; synthetic construct; SITE 2: note = 2-Aminoisobutyric Acid; SITE 12: note = L-ornithine; SITE 13: note = alpha-methyl-leucine; SITE 17: note = Lysine is chemically modified through conjugation of the epsilon-amino group of the Lysine side chain with (2-[2-(2-Amino-ethoxy)-ethoxy]-acetyl)-(gamma-Glu)) [Example 211]" label_class="group A"
binder="YXQGTFTSDXSQXLDXKAQXAFIEXLIEGGPSSGAPPPSGSEE (Aib, 4Pal, Orn, Me4Pal, αMeY; acylated lysine; amide; synthetic construct; SITE 2: note = 2-Aminoisobutyric Acid; SITE 10: note = 3-(4-Pyridyl)-L-alanine; SITE 13: note = alpha-methyl-leucine; SITE 16: note = L-ornithine; SITE 17: note = Lysine is chemically modified through conjugation of the epsilon-amino group of the Lysine side chain with (2-[2-(2-) [Example 1041]" label_class="group C"
binder="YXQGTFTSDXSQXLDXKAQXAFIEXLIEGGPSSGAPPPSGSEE (non-natural residues, (γGlu)2-C18 diacid lysine acylation, C-terminal amide; synthetic construct; SITE 2: note = 2-Aminoisobutyric Acid; SITE 10: note = 3-(4-Pyridyl)-L-alanine; SITE 13: note = alpha-methyl-leucine; SITE 16: note = L-ornithine; SITE 17: note = Lysine is chemically modified through conjugation of the epsilon-amino group of the Lysine side chain with (gamma-Gl)) [Example 1044]" label_class="group C"
binder="YXQGTFTSDXSQXLDKKAQXAFIEYLIAGGPSSGAPPPSGSEE (non-natural residues; AEEA-γGlu-C18 diacid on Lys; amide; synthetic construct; SITE 2: note = 2-Aminoisobutyric Acid; SITE 10: note = 3-(4-Pyridyl)-L-alanine; SITE 13: note = alpha-methyl-leucine; SITE 17: note = Lysine is chemically modified through conjugation of the epsilon-amino group of the Lysine side chain with (2-[2-(2-Amino-ethoxy)-ethoxy]-acetyl)) [Example 1029]" label_class="group A"
binder="YXQGTFTSDXSQXLDKKAQXAFIEYLIAGGPSSGEPPPSGSGE (non-natural residues; (γGlu)2-C18 diacid acyl; synthetic construct; SITE 2: note = 2-Aminoisobutyric Acid; SITE 10: note = 3-(4-Pyridyl)-L-alanine; SITE 13: note = alpha-methyl-leucine; SITE 17: note = Lysine is chemically modified through conjugation of the epsilon-amino group of the Lysine side chain with (gamma-Glu)2-CO-(CH2)16-CO2H; SITE 20:) [Example 971]" label_class="group C"
binder="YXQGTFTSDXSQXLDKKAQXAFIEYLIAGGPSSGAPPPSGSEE (non-natural residues; Lys acylated Glu-γGlu-C18 diacid; C-terminal amide; synthetic construct; SITE 2: note = 2-Aminoisobutyric Acid; SITE 10: note = 3-(4-Pyridyl)-L-alanine; SITE 13: note = alpha-methyl-leucine; SITE 17: note = Lysine is chemically modified through conjugation of the epsilon-amino group of the Lysine side chain with (Glu)-(gamma-Glu)-CO-(CH2)16-CO2H; SIT) [Example 1030]" label_class="group C"
binder="YXQGTFTSDXSXXLDKKAQXAFIEXLIAGGPSSGAPPPEGS (non-natural residues (Aib, 4Pal, Orn, Me4Pal, αMeY); lipidated K; amide; synthetic construct; SITE 2: note = 2-Aminoisobutyric Acid; SITE 10: note = 3-(4-Pyridyl)-L-alanine; SITE 12: note = L-ornithine; SITE 13: note = alpha-methyl-leucine; SITE 17: note = Lysine is chemically modified through conjugation of the epsilon-amino group of the Lysine side chain with (gamma-Gl)) [Example 1015]" label_class="group A"
binder="YXQGTXTSDYSILLDKKAQXAFIEXLEEGGPSSGAPPPSEG (synthetic construct; SITE 2: note = 2-Aminoisobutyric Acid; SITE 6: note = alpha-methyl-2-fluoro-L-phenylalanine; SITE 17: note = Lysine is chemically modified through conjugation of the epsilon-amino group of the Lysine side chain with (2-[2-(2-Amino-ethoxy)-ethoxy]-acetyl)-(gamma-Glu)-CO-(CH2) 16-) [Example 411]" label_class="group C"
binder="YXQGTFTSDFSXXLDKKAQXAFIEYLLEGGPSSGXPPPGGS (not fully specified; synthetic construct; SITE 2: note = 2-Aminoisobutyric Acid; SITE 12: note = L-ornithine; SITE 13: note = alpha-methyl-leucine; SITE 17: note = Lysine is chemically modified through conjugation of the epsilon-amino group of the Lysine side chain with (gamma-Glu)2-CO-(CH2)16-CO2H; SITE 20: note = 2-Am) [Example 771]" label_class="group B"
binder="YXQGTFTSDFSQXLDKKAQXAFIEWLLEGGPSSGAPPPEGS (synthetic construct; SITE 2: note = 2-Aminoisobutyric Acid; SITE 13: note = alpha-methyl-leucine; SITE 17: note = Lysine is chemically modified through conjugation of the epsilon-amino group of the Lysine side chain with (2-[2-(2-Amino-ethoxy)-ethoxy]-acetyl)-(gamma-Glu)-CO-(CH2) 16-CO2H; SITE 20: n) [Example 774]" label_class="group C"
binder="YXQGTFTSDXSQXLDXKAQXQFIEYLLAGGPSSGAPPPSGSEE ((γGlu)2-C18 diacid on Lys; non-natural residues; amide; synthetic construct; SITE 2: note = 2-Aminoisobutyric Acid; SITE 10: note = 3-(4-Pyridyl)-L-alanine; SITE 13: note = alpha-methyl-leucine; SITE 16: note = L-ornithine; SITE 17: note = Lysine is chemically modified through conjugation of the epsilon-amino group of the Lysine side chain with (gamma-Gl)) [Example 1006]" label_class="group A"
binder="YXQGTFTSDFSXXLDKKAQXAFIEYLLEAGPSSGEPPPSGS (synthetic construct; SITE 2: note = 2-Aminoisobutyric Acid; SITE 12: note = L-ornithine; SITE 13: note = alpha-methyl-leucine; SITE 17: note = Lysine is chemically modified through conjugation of the epsilon-amino group of the Lysine side chain with (2-[2-(2-Amino-ethoxy)-ethoxy]-acetyl)2-(gamma-Glu)) [Example 155]" label_class="group C"
binder="YXQGTFTSDXSQXLDKKAQXAFIEXLIEGGPSSGAPPPSGSEE (non-natural residues; Lys acylated C18 diacid; C-terminal amide; synthetic construct; SITE 2: note = 2-Aminoisobutyric Acid; SITE 10: note = 3-(4-Pyridyl)-L-alanine; SITE 13: note = alpha-methyl-leucine; SITE 17: note = Lysine is chemically modified through conjugation of the epsilon-amino group of the Lysine side chain with (gamma-Glu)2-CO-(CH2)16-CO2H; SITE 20:) [Example 957]" label_class="group B"
binder="YXQGTXTSDXXIXLDXKAQXEFIEXLIEGGPSSGEPPPEGTGE (synthetic construct; SITE 2: note = 2-Aminoisobutyric Acid; SITE 6: note = alpha-methyl-2-fluoro-L-phenylalanine; SITE 10: note = 3-(4-Pyridyl)-L-alanine; SITE 11: note = alpha-methyl-L-serine; SITE 13: note = alpha-methyl-leucine; SITE 16: note = L-ornithine; SITE 17: note = Lysine is chemically mo) [Example 763]" label_class="group A"
binder="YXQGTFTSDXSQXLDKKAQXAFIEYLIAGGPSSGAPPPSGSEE (Aib, 4Pal, Me4Pal, αMeL; lipidated Lys; C-terminal amide; synthetic construct; SITE 2: note = 2-Aminoisobutyric Acid; SITE 10: note = 3-(4-Pyridyl)-L-alanine; SITE 13: note = alpha-methyl-leucine; SITE 17: note = Lysine is chemically modified through conjugation of the epsilon-amino group of the Lysine side chain with (gamma-Glu)2-CO-(CH2)16-CO2H; SITE 20:) [Example 960]" label_class="group B"
binder="YXQGTFTSDXSXXLDXKAQXQFIEXLLAGGPSSGAPPPSGSEE (non-natural residues, (γGlu)2-diacid acylated Lys, C-terminal amide; synthetic construct; SITE 2: note = 2-Aminoisobutyric Acid; SITE 10: note = 3-(4-Pyridyl)-L-alanine; SITE 12: note = L-ornithine; SITE 13: note = alpha-methyl-leucine; SITE 16: note = L-ornithine; SITE 17: note = Lysine is chemically modified through conjugation of the epsilon-amino group of the Lys) [Example 995]" label_class="group A"
binder="YXQGTFTSDFSRXLDKKAQXAFIEYLIEXGESSGAPPPSGE (acylated lipid side chain; synthetic construct; SITE 2: note = 2-Aminoisobutyric Acid; SITE 13: note = alpha-methyl-leucine; SITE 17: note = Lysine is chemically modified through conjugation of the epsilon-amino group of the Lysine side chain with (2-[2-(2-Amino-ethoxy)-ethoxy]-acetyl)-(gamma-Glu)-CO-(CH2) 16-CO2H; SITE 20: n) [Example 231]" label_class="group A"
binder="YXQGTFTSDFSKXLDKKAQXAFIEYLAAGGPSSGEPPPSGE (synthetic construct; SITE 2: note = 2-Aminoisobutyric Acid; SITE 13: note = alpha-methyl-leucine; SITE 17: note = Lysine is chemically modified through conjugation of the epsilon-amino group of the Lysine side chain with (epsilon-K)2-(gamma-Glu)-CO-(CH2)18-CO2H; SITE 20: note = 2-Aminoisobutyric Aci) [Example 405]" label_class="group C"
binder="YXQGTXTSDYSILLDKKAQXAFIEYLLEGGPSSGAPPPS (not fully specified; synthetic construct; SITE 2: note = 2-Aminoisobutyric Acid; SITE 6: note = alpha-methyl-2-fluoro-L-phenylalanine; SITE 17: note = Lysine is chemically modified through conjugation of the epsilon-amino group of the Lysine side chain with (2-[2-(2-Amino-ethoxy)-ethoxy]-acetyl)2-(gamma-Glu)-CO-(CH2 )18) [Example 385]" label_class="group B"
binder="YXQGTFTSDFSRXLDKKAQXAFIEYLLEGGESSGAPPPSGS (synthetic construct; SITE 2: note = 2-Aminoisobutyric Acid; SITE 13: note = alpha-methyl-leucine; SITE 17: note = Lysine is chemically modified through conjugation of the epsilon-amino group of the Lysine side chain with (2-[2-(2-Amino-ethoxy)-ethoxy]-acetyl)-(gamma-Glu)-CO-(CH2) 16-CO2H; SITE 20: n) [Example 148]" label_class="group C"
binder="YXQGTFTSDFSXXLDKKAQXAFIEYLLEXGHSSGAPPPSGT (synthetic construct; SITE 2: note = 2-Aminoisobutyric Acid; SITE 12: note = L-ornithine; SITE 13: note = alpha-methyl-leucine; SITE 17: note = Lysine is chemically modified through conjugation of the epsilon-amino group of the Lysine side chain with (2-[2-(2-Amino-ethoxy)-ethoxy]-acetyl)2-(gamma-Glu)) [Example 182]" label_class="group C"
binder="YXQGTFTSDFSQXLDKKAQXAFIEYLLEAGPSSGAPPPSGS (synthetic construct; SITE 2: note = 2-Aminoisobutyric Acid; SITE 13: note = alpha-methyl-leucine; SITE 17: note = Lysine is chemically modified through conjugation of the epsilon-amino group of the Lysine side chain with (2-[2-(2-Amino-ethoxy)-ethoxy]-acetyl)-(gamma-Glu)-CO-(CH2) 16-CO2H; SITE 20: n) [Example 775]" label_class="group B"
